# Test system: A. baumannii A387
# PROTOCOL DESCRIPTION: MIC without and with sub-inhibitory polymyxin B (Example 4)
# Format: cell-based, Acinetobacter baumannii
# CONDITION NOTES: Acinetobacter baumannii, A387, read-out: MIC +0.06 μg/ml PB, A. baumannii A387; +0.06 μg/ml polymyxin B; 1st experiment
# MIC annotations
METRIC: MIC

> print(dat)
                            chemical.smiles       study.system  observed.measurement
1  Cc1c(-c2cc(F)c(N)cc2F)ccn2c(=O)c(C(=O)O)cc(C3CC3)c12  A. baumannii A387           ≤ 0.03 mg/L
2  Cc1c(-c2ccc(CN)c(F)c2)ccn2c(=O)c(C(=O)O)cc(C3CC3)c12  A. baumannii A387                1 mg/L
3  Cc1c(-c2ccc(N)c(F)c2)ccn2c(=O)c(C(=O)O)cc(C3CC3)c12  A. baumannii A387           ≤ 0.03 mg/L
4  C[C@@H](O)[C@H]1C(=O)N2C(C(=O)O)=C(S[C@@H]3CN[C@H](C(=O)N(C)C)C3)[C@H](C)[C@H]12  A. baumannii A387                1 mg/L
5  Cc1c(-c2ccc(CN)cc2)c(F)cn2c(=O)c(C(=O)O)cc(C3CC3)c12  A. baumannii A387              0.5 mg/L
